run description: PSAC antagonists in infected red cells, primary screen, cell-based, P. falciparum Indochina, OD700, 1 h (AID 1154)
condition notes: P. falciparum Indochina infected RBC osmotic lysis, called active from +8 up or from −8 down
Calls of active or inactive are those of the source.
Possible outcomes: T for active, F for inactive

# molecule, class label
measured = [
    ("O=C1N(CCS(=O)(=O)c2ccccc2)Cc2ccccc2C[C@]12N=C(c1ccc(OCCCO)cc1)O[C@@H]2c1ccccc1", "T"),
    ("C=CCOC(=O)[C@@H]1[C@H]2C(=O)O[C@H](c3ccccc3)[C@H](c3ccccc3)N2[C@H](c2ccc(OCCOC(=O)[C@@H]3C[C@@H]4C(=O)NCC(=O)N4[C@@H]3c3cccc(OCCO)c3)cc2)[C@@]12C(=O)Nc1ccc(I)cc12", "F"),
    ("O=C1O[C@@H](c2ccccc2)[C@@H](c2ccccc2)N2[C@@H](c3ccc(OCCO)cc3)[C@]3(C(=O)Nc4ccccc43)[C@@H](C(=O)Nc3nc4ccccc4s3)[C@H]12", "F"),
    ("O=C1OCCC=C[C@H]2OC34C=CCN(c5ccc6ccccc6c5)C(=O)[C@H]3N(CCCCCO)C(=O)[C@@H]4C12 (stereo not given in full)", "F"),
    ("CCCCCN1CC=CC23O[C@@H]4C=CCOC(=O)[C@@H]4[C@H]2C(=O)N(CCCO)[C@@H]3C1=O (stereo not given in full)", "F"),
    ("Cc1ccc(F)cc1S(=O)(=O)N[C@@H]1CCN(Cc2ccc(-c3ccccc3)cc2)C1", "T"),
    ("CCC(CC)C(O)C1C=CC2C(=O)N(c3ccccc3)C(=O)C2N1Nc1ccc(C#N)cc1 (stereo not given)", "T"),
    ("COc1ccc(CCNC(=O)[C@@]2(c3ccc([N+](=O)[O-])cc3)CC(=O)N(CC34CC5CC(CC(C5)C3)C4)[C@@H]2c2ccc(CO)cc2)cc1", "F"),
    ("C=C(CCCC)/C(=C/C[C@H](OC(C)=O)c1ccc(CO)o1)c1cnc2ccccc2c1", "F"),
    ("Cc1ccc(S[C@]2(C(=O)NCC(C)C)CC(=O)N(Cc3ccccc3)[C@@H]2c2ccc(CO)cc2I)cc1", "T"),
    ("CC(C)CNC(=O)[C@@H]1c2ccccc2C(=O)N(Cc2cc(C(F)(F)F)cc(C(F)(F)F)c2)[C@H]1c1ccc(CO)cc1", "F"),
    ("CN(C)CCCNC(=O)[C@@]1(Cc2ccccc2I)c2ccccc2C(=O)N(Cc2ccccc2C(F)(F)F)[C@H]1c1ccc(CO)cc1", "T"),
    ("NCCCCCNC(=O)[C@H]1C[C@H]2C(=O)NCC(=O)N2[C@H]1c1cccc(OCCO)c1", "F"),
    ("CC(C)C(=C=CC[C@H](O)c1ccccc1OCCO)C[C@H](O)c1ccccn1", "F"),
    ("CC=CC(O)C1C=CC2C(=O)N(c3ccccc3)C(=O)C2N1Nc1ccc(C(C)C)cc1 (stereo not given)", "T"),
]

* * *

run description: E. coli acrAB mutant growth effects, primary screen, E. coli filamentation inducers, strain DRC39, OD650, 24 h (AID 1178);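 further: growth measured as culture turbidity by optical density at 650 nm; test concentration not given here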
condition notes: higher = more signal, called active from +8 up or from −8 down
Measured z-score, listed per entry for reference.
attribute measured: z-score

# compound, readout number
measured = [
    ("O=C1N(CCS(=O)(=O)c2ccccc2)Cc2ccccc2[C@H]2OC(c3ccc(OCCCO)cc3)=N[C@@]12CCS(=O)(=O)c1ccccc1", 1.69),
    ("O=C1O[C@@H](c2ccccc2)[C@@H](c2ccccc2)N2[C@@H](c3ccc(O)cc3)[C@]3(C(=O)Nc4ccc(C#CC5=CCCCC5)cc43)[C@@H](C(=O)O)[C@H]12", 0.661),
    ("CCN(CC)c1ccc(N2CC=CC34O[C@@H]5/C=C\\CCCOC(=O)C5[C@H]3C(=O)N(C(CO)C(C)C)[C@@H]4C2=O)cc1 (stereo partly drawn)", -0.0034),
]
